System: Kunming mice
ASSAY NOTES: Drug-induced loss of righting reflex in mice
Format: in vivo
DETAILS: 60 mg/kg, single bolus via tail vein
Each entry gets N if its Latency to loss of righting reflex stays under 0.2 min, and Y if its Latency to loss of righting reflex is 0.2 min or above.

[Q] Tell me whether Latency to loss of righting reflex is at least 0.2 min here: COC(=O)CC[C@@H]1N=C(c2ccccn2)c2cc(Br)ccc2-n2ccnc21
[A] N

[Q] State whether the measured Latency to loss of righting reflex reaches 0.2 min, counting equality as reaching it, for COC(=O)CC[C@@H]1N=C(c2ccccn2)c2cc(Cl)ccc2-n2c(C3CCC3)cnc21
[A] Y

[Q] Has COC(=O)CC[C@@H]1N=C(c2ccccc2F)c2cc(Cl)ccc2-n2c(C3CC3)nnc21 a recorded Latency to loss of righting reflex greater than or equal to 0.2 min?
[A] N

[Q] Could you tell me if the measured Latency to loss of righting reflex of COC(=O)CC[C@@H]1N=C(c2ccccn2)c2cc(Cl)ccc2-n2c(C(C)C)nnc21 reaches 0.2 min or more?
[A] N

[Q] Say whether [2H]Cc1cnc2n1-c1ccc(Br)cc1C(c1ccccn1)=N[C@H]2CCC(=O)OC shows Latency to loss of righting reflex of 0.2 min or more.
[A] N

[Q] Entry COC(=O)CC[C@@H]1N=C(c2ccccn2)c2cc(Br)ccc2-n2c(C)cnc21 [Remimazolam, reference compound] : is its Latency to loss of righting reflex no less than 0.2 min?
[A] Y

Now for a further compound.
[Q] Check this compound for Latency to loss of righting reflex at or above 0.2 min: CCc1cnc2n1-c1ccc(Br)cc1C(c1ccccn1)=N[C@H]2CCC(=O)OC
[A] Y

* * *

Catalogue of compounds with associated Emax at 30 µM
Test system: GABA Cl− current, HEK293T cells
ASSAY NOTES: Cellular GABA activation current via whole-cell patch clamp
Type: cell-based
DETAILS: Homo sapiens, HEK-293T; concentration 30 μM, with 1 μM GABA, holding potential −60 mV; read-out: Emax (maximum percentage of current potentiation)
Response body: numeric value in %, unit text excluded.

[Q] Any idea what Emax at 30 µM was measured for COC(=O)CC[C@@H]1N=C(c2ccccn2)c2cc(Br)ccc2-n2c(C)nnc21 ?
[A] 472

[Q] What Emax at 30 µM value was documented for this compound, COC(=O)CC[C@@H]1N=C(c2ccccc2)c2cc(Cl)ccc2-n2cnnc21 ?
[A] 325

Others:
[Q] // query Emax at 30 µM value for entry COC(=O)CC[C@@H]1N=C(c2ccccn2)c2cc(Br)ccc2-n2ccnc21
[A] 358

[Q] Field request: Emax at 30 µM | item: [2H]Cc1nnc2n1-c1ccc(Br)cc1C(c1ccccn1)=N[C@H]2CCC(=O)OC
[A] 319

Source of measurements: patent US20180312511A1
